Test system: Mycobacterium tuberculosis Erdman (autoluminescent)
Test: Einf, fitted maximum growth inhibition of three-drug combination (fraction); higher = stronger maximal inhibition
Details: in vitro model: standard 7H9 glycerol; time point: constant = terminal
readout.label: Einf

compound | data.value
COc1nc2ccc(Br)cc2cc1[C@@H](c1ccccc1)[C@@](O)(CCN(C)C)c1cccc2ccccc12 [bedaquiline] + CC(C)/N=c1\cc2n(-c3ccc(Cl)cc3)c3ccccc3nc-2cc1Nc1ccc(Cl)cc1 [clofazimine] + CC(=O)NC[C@H]1CN(c2ccc(N3CCOCC3)c(F)c2)C(=O)O1 [linezolid] | 0.962
COc1nc2ccc(Br)cc2cc1[C@@H](c1ccccc1)[C@@](O)(CCN(C)C)c1cccc2ccccc12 [bedaquiline] + NNC(=O)c1ccncc1 [isoniazid] + COc1c(N2C[C@@H]3CCCN[C@@H]3C2)c(F)cc2c(=O)c(C(=O)O)cn(C3CC3)c12 [moxifloxacin] | 0.987
CC(=O)NC[C@H]1CN(c2ccc(N3CCOCC3)c(F)c2)C(=O)O1 [linezolid] + COc1c(N2C[C@@H]3CCCN[C@@H]3C2)c(F)cc2c(=O)c(C(=O)O)cn(C3CC3)c12 [moxifloxacin] + CO[C@H]1/C=C/O[C@@]2(C)Oc3c(C)c(O)c4c(O)c(c(/C=N/N5CCN(C6CCCC6)CC5)c(O)c4c3C2=O)NC(=O)/C(C)=C\C=C\[C@H](C)[C@H](O)[C@@H](C)[C@@H](O)[C@@H](C)[C@H](OC(C)=O)[C@@H]1C [rifapentine] | 0.902

----------
Measured total FIC50 of individual entries
Tested on: Mycobacterium tuberculosis Erdman (autoluminescent)
Assay: total FIC50 (Loewe) at 50% inhibition, three-drug combination (log2); higher = more antagonistic
Conditions: in vitro model: cholesterol-high 0.2 mM; time point: terminal (~4-5 doublings, model-specific)
readout.label: total FIC50

molecule | readout.label | data.value
COc1nc2ccc(Br)cc2cc1[C@@H](c1ccccc1)[C@@](O)(CCN(C)C)c1cccc2ccccc12 [bedaquiline] + CC[C@@H](CO)NCCN[C@@H](CC)CO [ethambutol] + COc1c(N2C[C@@H]3CCCN[C@@H]3C2)c(F)cc2c(=O)c(C(=O)O)cn(C3CC3)c12 [moxifloxacin] | total FIC50 | 1.33
COc1nc2ccc(Br)cc2cc1[C@@H](c1ccccc1)[C@@](O)(CCN(C)C)c1cccc2ccccc12 [bedaquiline] + CC(C)/N=c1\cc2n(-c3ccc(Cl)cc3)c3ccccc3nc-2cc1Nc1ccc(Cl)cc1 [clofazimine] + O=[N+]([O-])c1cn2c(n1)OC[C@@H](OCc1ccc(OC(F)(F)F)cc1)C2 [pretomanid] | total FIC50 | 0.209
CC(C)/N=c1\cc2n(-c3ccc(Cl)cc3)c3ccccc3nc-2cc1Nc1ccc(Cl)cc1 [clofazimine] + CC(=O)NC[C@H]1CN(c2ccc(N3CCOCC3)c(F)c2)C(=O)O1 [linezolid] + CO[C@H]1/C=C/O[C@@]2(C)Oc3c(C)c(O)c4c(O)c(c(/C=N/N5CCN(C6CCCC6)CC5)c(O)c4c3C2=O)NC(=O)/C(C)=C\C=C\[C@H](C)[C@H](O)[C@@H](C)[C@@H](O)[C@@H](C)[C@H](OC(C)=O)[C@@H]1C [rifapentine] | total FIC50 | 0.111
CC[C@@H](CO)NCCN[C@@H](CC)CO [ethambutol] + NNC(=O)c1ccncc1 [isoniazid] + O=[N+]([O-])c1cn2c(n1)OC[C@@H](OCc1ccc(OC(F)(F)F)cc1)C2 [pretomanid] | total FIC50 | 1.18

----------
Measured total FIC90 of individual entries
Test system: Mycobacterium tuberculosis Erdman (autoluminescent)
Assay: total FIC90 (Loewe) at 90% inhibition, three-drug combination (log2); higher = more antagonistic
Details: in vitro model: acidic pH 5.7; time point: terminal (~4-5 doublings, model-specific)
readout.label: total FIC90

compound | readout.label | data.value
COc1nc2ccc(Br)cc2cc1[C@@H](c1ccccc1)[C@@](O)(CCN(C)C)c1cccc2ccccc12 [bedaquiline] + NNC(=O)c1ccncc1 [isoniazid] + CO[C@H]1/C=C/O[C@@]2(C)Oc3c(C)c(O)c4c(O)c(c(/C=N/N5CCN(C6CCCC6)CC5)c(O)c4c3C2=O)NC(=O)/C(C)=C\C=C\[C@H](C)[C@H](O)[C@@H](C)[C@@H](O)[C@@H](C)[C@H](OC(C)=O)[C@@H]1C [rifapentine] | total FIC90 | 0.815
CC[C@@H](CO)NCCN[C@@H](CC)CO [ethambutol] + NC(=O)c1cnccn1 [pyrazinamide] + CO[C@H]1/C=C/O[C@@]2(C)Oc3c(C)c(O)c4c(O)c(c(/C=N/N5CCN(C)CC5)c(O)c4c3C2=O)NC(=O)/C(C)=C\C=C\[C@H](C)[C@H](O)[C@@H](C)[C@@H](O)[C@@H](C)[C@H](OC(C)=O)[C@@H]1C [rifampicin] | total FIC90 | -0.924

----------
Tested on: Mycobacterium tuberculosis Erdman (autoluminescent)
Test: total FIC90 (Loewe) at 90% inhibition, three-drug combination (log2); higher = more antagonistic
Details: in vitro model: dormancy (butyrate + nitrate, low O2); time point: terminal (~4-5 doublings, model-specific)

compound | total FIC90
CC[C@@H](CO)NCCN[C@@H](CC)CO [ethambutol] + CC(=O)NC[C@H]1CN(c2ccc(N3CCOCC3)c(F)c2)C(=O)O1 [linezolid] + CO[C@H]1/C=C/O[C@@]2(C)Oc3c(C)c(O)c4c(O)c(c(/C=N/N5CCN(C6CCCC6)CC5)c(O)c4c3C2=O)NC(=O)/C(C)=C\C=C\[C@H](C)[C@H](O)[C@@H](C)[C@@H](O)[C@@H](C)[C@H](OC(C)=O)[C@@H]1C [rifapentine] | 1.09
NNC(=O)c1ccncc1 [isoniazid] + O=[N+]([O-])c1cn2c(n1)OC[C@@H](OCc1ccc(OC(F)(F)F)cc1)C2 [pretomanid] + CO[C@H]1/C=C/O[C@@]2(C)Oc3c(C)c(O)c4c(O)c(c(/C=N/N5CCN(C6CCCC6)CC5)c(O)c4c3C2=O)NC(=O)/C(C)=C\C=C\[C@H](C)[C@H](O)[C@@H](C)[C@@H](O)[C@@H](C)[C@H](OC(C)=O)[C@@H]1C [rifapentine] | 2.66
CC(=O)NC[C@H]1CN(c2ccc(N3CCOCC3)c(F)c2)C(=O)O1 [linezolid] + COc1c(N2C[C@@H]3CCCN[C@@H]3C2)c(F)cc2c(=O)c(C(=O)O)cn(C3CC3)c12 [moxifloxacin] + O=[N+]([O-])c1cn2c(n1)OC[C@@H](OCc1ccc(OC(F)(F)F)cc1)C2 [pretomanid] | 0.983

----------
Test system: Mycobacterium tuberculosis Erdman (autoluminescent)
Assay: total FIC90 (Loewe) at 90% inhibition, three-drug combination (log2); higher = more antagonistic
Settings: in vitro model: dormancy (butyrate + nitrate, low O2); time point: constant (~7 days, model-specific)
Measured total FIC90 of individual entries
readout.label: total FIC90

compound | tgt | data.value
COc1nc2ccc(Br)cc2cc1[C@@H](c1ccccc1)[C@@](O)(CCN(C)C)c1cccc2ccccc12 [bedaquiline] + NNC(=O)c1ccncc1 [isoniazid] + CC(=O)NC[C@H]1CN(c2ccc(N3CCOCC3)c(F)c2)C(=O)O1 [linezolid] | Mycobacterium tuberculosis Erdman (autoluminescent) | 0.532
COc1nc2ccc(Br)cc2cc1[C@@H](c1ccccc1)[C@@](O)(CCN(C)C)c1cccc2ccccc12 [bedaquiline] + CC(=O)NC[C@H]1CN(c2ccc(N3CCOCC3)c(F)c2)C(=O)O1 [linezolid] + O=[N+]([O-])c1cn2c(n1)OC[C@@H](OCc1ccc(OC(F)(F)F)cc1)C2 [pretomanid] | Mycobacterium tuberculosis Erdman (autoluminescent) | -0.616
COc1nc2ccc(Br)cc2cc1[C@@H](c1ccccc1)[C@@](O)(CCN(C)C)c1cccc2ccccc12 [bedaquiline] + CC(=O)NC[C@H]1CN(c2ccc(N3CCOCC3)c(F)c2)C(=O)O1 [linezolid] + CO[C@H]1/C=C/O[C@@]2(C)Oc3c(C)c(O)c4c(O)c(c(/C=N/N5CCN(C)CC5)c(O)c4c3C2=O)NC(=O)/C(C)=C\C=C\[C@H](C)[C@H](O)[C@@H](C)[C@@H](O)[C@@H](C)[C@H](OC(C)=O)[C@@H]1C [rifampicin] | Mycobacterium tuberculosis Erdman (autoluminescent) | 0.781

----------
Tested on: Mycobacterium tuberculosis Erdman (autoluminescent)
Assay: Einf, fitted maximum growth inhibition of three-drug combination (fraction); higher = stronger maximal inhibition
Conditions: in vitro model: cholesterol 0.05 mM; time point: constant (~7 days, model-specific)

molecule | Einf
CC(C)/N=c1\cc2n(-c3ccc(Cl)cc3)c3ccccc3nc-2cc1Nc1ccc(Cl)cc1 [clofazimine] + NC(=O)c1cnccn1 [pyrazinamide] + CO[C@H]1/C=C/O[C@@]2(C)Oc3c(C)c(O)c4c(O)c(c(/C=N/N5CCN(C)CC5)c(O)c4c3C2=O)NC(=O)/C(C)=C\C=C\[C@H](C)[C@H](O)[C@@H](C)[C@@H](O)[C@@H](C)[C@H](OC(C)=O)[C@@H]1C [rifampicin] | 0.657
CC(C)/N=c1\cc2n(-c3ccc(Cl)cc3)c3ccccc3nc-2cc1Nc1ccc(Cl)cc1 [clofazimine] + COc1c(N2C[C@@H]3CCCN[C@@H]3C2)c(F)cc2c(=O)c(C(=O)O)cn(C3CC3)c12 [moxifloxacin] + CO[C@H]1/C=C/O[C@@]2(C)Oc3c(C)c(O)c4c(O)c(c(/C=N/N5CCN(C6CCCC6)CC5)c(O)c4c3C2=O)NC(=O)/C(C)=C\C=C\[C@H](C)[C@H](O)[C@@H](C)[C@@H](O)[C@@H](C)[C@H](OC(C)=O)[C@@H]1C [rifapentine] | 0.651
COc1nc2ccc(Br)cc2cc1[C@@H](c1ccccc1)[C@@](O)(CCN(C)C)c1cccc2ccccc12 [bedaquiline] + CC(C)/N=c1\cc2n(-c3ccc(Cl)cc3)c3ccccc3nc-2cc1Nc1ccc(Cl)cc1 [clofazimine] + NC(=O)c1cnccn1 [pyrazinamide] | 0.732
